What kon was measured for each of the following?
Molecular target: T1, Activin A (UniProt P08476 311-426)
T1 sequence (looked up): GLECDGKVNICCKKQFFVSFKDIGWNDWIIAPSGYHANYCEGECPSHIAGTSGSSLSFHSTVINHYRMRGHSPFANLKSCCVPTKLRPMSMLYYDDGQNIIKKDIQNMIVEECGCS
Experiment: Biacore; ActRIIB-Fc captured by anti-hFc antibody, ligand injected
# number only, unit M⁻¹ s⁻¹ dropped from output

Exam item: For the binder ActRIIB(R64K 20-129)-hFc (Fc fusion, not shown: human Fc domain (hFc)) GRGEAETRECIYYNANWELERTNQSGLERCEGEQDKRLHCYASWKNSSGTIELVKKGCWLDDFNCYDRQECVATEENPQVYFCCCEGNFCNERFTHLPEAGGPEVTYEPPGGG , what kon is on record?
Marked response: 7.46e+06

Exam item: For the binder ActRIIB(20-134)-hFc (Fc fusion) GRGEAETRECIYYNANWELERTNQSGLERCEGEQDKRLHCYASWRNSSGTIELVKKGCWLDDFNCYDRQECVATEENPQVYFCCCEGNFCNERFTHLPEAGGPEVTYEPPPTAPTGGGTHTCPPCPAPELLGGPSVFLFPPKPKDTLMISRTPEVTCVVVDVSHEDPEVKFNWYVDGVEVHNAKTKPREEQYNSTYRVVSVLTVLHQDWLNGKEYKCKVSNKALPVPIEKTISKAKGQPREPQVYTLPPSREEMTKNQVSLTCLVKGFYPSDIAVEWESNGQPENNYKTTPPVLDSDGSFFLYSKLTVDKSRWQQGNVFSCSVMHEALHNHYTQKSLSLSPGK , what kon is on record?
Marked response: 5.94e+06

Exam item: For the binder ActRIIB(A24N 20-134)-hFc (Fc fusion, also called the A24N variant; not shown: human Fc domain (hFc)) GRGENETRECIYYNANWELERTNQSGLERCEGEQDKRLHCYASWRNSSGTIELVKKGCWLDDFNCYDRQECVATEENPQVYFCCCEGNFCNERFTHLPEAGGPEVTYEPPPTAPTGGG , what kon is on record?
Marked response: 3.34e+06

Exam item: For the binder ActRIIB(P129S, P130R 20-134)-hFc (Fc fusion, kept as two molecules; not shown: human Fc domain (hFc)) GRGEAETRECIYYNANWELERTNQSGLERCEGEQDKRLHCYASWRNSSGTIELVKKGCWLDDFNCYDRQECVATEENPQVYFCCCEGNFCNERFTHLPEAGGPEVTYEPSRTAPTGGG , what kon is on record?
Marked response: 5.02e+06

Exam item: For the binder ActRIIB(R64K 20-134)-hFc (Fc fusion, not shown: human Fc domain (hFc)) GRGEAETRECIYYNANWELERTNQSGLERCEGEQDKRLHCYASWKNSSGTIELVKKGCWLDDFNCYDRQECVATEENPQVYFCCCEGNFCNERFTHLPEAGGPEVTYEPPPTAPTGGG , what kon is on record?
Marked response: 6.82e+06

Recorded values, source patent US20100068215A1.
